# Test system: SRS-A release from lung fragments
# Assay Summary: Inhibition of SRS-A release from sensitized guinea pig lung fragments
# Assay type: cell-based, guinea pig (Hartley strain)
# Test Parameters: Cavia porcellus, Table 2B, 1 μM; read-out: Inhibitory activities on SRS-A (%)
Each record's inhibition at 1 µM is compared with bin A (below 10%), bin B (10% to below 30%), bin C (30% or more) to give its class.

Chem Smiles: COC1=CC(=O)C(OC)=C(CCCCCSCCCCCC2=C(OC)C(=O)C=C(OC)C2=O)C1=O
Study Target: SRS-A release from lung fragments
Label Value: bin B
--
Chem Smiles: COC1=CC(=O)C(OC)=C(CCCCCC2=C(OC)C(=O)C(CCCCCC3=C(OC)C(=O)C=C(OC)C3=O)=C(OC)C2=O)C1=O
Study Target: SRS-A release from lung fragments
Label Value: bin A
--
Chem Smiles: COC1=CC(=O)C(OC)=C(CCCC2=C(OC)C(=O)C=C(OC)C2=O)C1=O
Study Target: SRS-A release from lung fragments
Label Value: bin B
--
Chem Smiles: CCCCC1=C(OC)C(=O)C(CCCCCC2=C(OC)C(=O)C(CCO)=C(OC)C2=O)=C(OC)C1=O
Study Target: SRS-A release from lung fragments
Label Value: bin B
--
Chem Smiles: COC1=CC(=O)C(OC)=C(OCCCOC2=C(OC)C(=O)C=C(OC)C2=O)C1=O
Study Target: SRS-A release from lung fragments
Label Value: bin B
--
Chem Smiles: CCCCC1=C(OC)C(=O)C(CCCCCC2=C(OC)C(=O)C=C(OC)C2=O)=C(OC)C1=O
Study Target: SRS-A release from lung fragments
Label Value: bin B
--
Chem Smiles: COC1=C(CCO)C(=O)C(OC)=C(CCCCCC2=C(OC)C(=O)C(SC)=C(OC)C2=O)C1=O
Study Target: SRS-A release from lung fragments
Label Value: bin A
--
Chem Smiles: COC1=CC(=O)C(OC)=C(CCCCC2=C(OC)C(=O)C=C(OC)C2=O)C1=O
Study Target: SRS-A release from lung fragments
Label Value: bin C
--
Chem Smiles: CCCCC#CCCCC1=C(OC)C(=O)C(CCCCCC2=C(OC)C(=O)C=C(OC)C2=O)=C(OC)C1=O
Study Target: SRS-A release from lung fragments
Label Value: bin A
--
Chem Smiles: CCOC(=O)C1=C(OC)C(=O)C(CCCCCC2=C(OC)C(=O)C=C(OC)C2=O)=C(OC)C1=O
Study Target: SRS-A release from lung fragments
Label Value: bin A
--
Chem Smiles: COC1=CC(=O)C(OC)=C(CCCCCC2=C(OC)C(=O)C(OC)=C(OC)C2=O)C1=O
Study Target: SRS-A release from lung fragments
Label Value: bin C
--
Chem Smiles: CCOC(=O)C1=C(OC)C(=O)C(CCCCCC2=C(OC)C(=O)C(CCO)=C(OC)C2=O)=C(OC)C1=O
Study Target: SRS-A release from lung fragments
Label Value: bin B
--
Chem Smiles: COC1=C(CCCCCC2=C(OC)C(=O)C(OC)=C(OC)C2=O)C(=O)C(OC)=C(OC)C1=O
Study Target: SRS-A release from lung fragments
Label Value: bin C
--
Chem Smiles: COC1=CC(=O)C(OC)=C(CCCCCC2=C(OC)C(=O)C(CCO)=C(OC)C2=O)C1=O
Study Target: SRS-A release from lung fragments
Label Value: bin C
